biological target: GAK (Cyclin G-associated kinase) (Homo sapiens, UniProt O14976); test: Kinase binding displacement assay; settings: no ATP present
Sequence (O14976 whole entry, species assumed): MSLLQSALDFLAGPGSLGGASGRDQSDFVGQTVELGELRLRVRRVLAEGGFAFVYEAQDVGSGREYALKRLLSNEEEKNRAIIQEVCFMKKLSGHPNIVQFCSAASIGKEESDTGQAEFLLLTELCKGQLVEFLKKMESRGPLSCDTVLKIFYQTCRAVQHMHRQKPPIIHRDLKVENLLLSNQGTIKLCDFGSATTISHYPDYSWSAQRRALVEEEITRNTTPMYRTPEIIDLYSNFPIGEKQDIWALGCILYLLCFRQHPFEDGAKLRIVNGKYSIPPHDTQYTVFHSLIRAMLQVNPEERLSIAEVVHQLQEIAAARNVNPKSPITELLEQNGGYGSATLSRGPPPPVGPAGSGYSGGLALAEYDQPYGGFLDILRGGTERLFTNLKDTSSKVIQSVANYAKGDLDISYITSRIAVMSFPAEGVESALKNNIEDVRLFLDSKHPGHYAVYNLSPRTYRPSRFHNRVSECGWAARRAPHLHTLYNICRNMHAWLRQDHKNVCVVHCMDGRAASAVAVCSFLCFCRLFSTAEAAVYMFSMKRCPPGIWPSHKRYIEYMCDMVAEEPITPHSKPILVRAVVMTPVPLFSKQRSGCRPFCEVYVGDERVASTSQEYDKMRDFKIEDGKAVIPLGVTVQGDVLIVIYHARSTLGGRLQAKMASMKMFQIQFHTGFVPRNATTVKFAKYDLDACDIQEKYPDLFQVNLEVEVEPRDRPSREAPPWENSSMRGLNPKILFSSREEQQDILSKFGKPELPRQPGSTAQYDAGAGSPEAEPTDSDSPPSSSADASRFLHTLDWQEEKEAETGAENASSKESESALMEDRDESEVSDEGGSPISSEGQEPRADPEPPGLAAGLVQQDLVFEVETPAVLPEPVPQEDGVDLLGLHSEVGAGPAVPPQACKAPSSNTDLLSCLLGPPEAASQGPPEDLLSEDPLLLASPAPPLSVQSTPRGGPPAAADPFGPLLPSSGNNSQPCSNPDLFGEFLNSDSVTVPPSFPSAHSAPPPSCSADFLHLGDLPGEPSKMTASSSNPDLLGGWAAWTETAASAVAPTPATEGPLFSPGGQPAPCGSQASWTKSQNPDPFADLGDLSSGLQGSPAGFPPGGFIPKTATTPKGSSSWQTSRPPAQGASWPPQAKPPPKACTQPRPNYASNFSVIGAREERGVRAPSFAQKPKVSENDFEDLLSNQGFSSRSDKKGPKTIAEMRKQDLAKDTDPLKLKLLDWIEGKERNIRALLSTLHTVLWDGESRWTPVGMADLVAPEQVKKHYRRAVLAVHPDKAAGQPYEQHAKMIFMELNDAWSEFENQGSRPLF
Reported endpoint: IC50 (µM)

[a] O=C1Nc2ccc(S(F)(F)(F)(F)F)cc2/C1=C/c1ccc[nH]1 [Compound 10]
[b] O=C1Nc2cc(S(F)(F)(F)(F)F)ccc2/C1=C/c1ccc[nH]1 [Compound 11]
Hi team, can someone confirm which has the larger IC50: a or b ? Thanks. Reply briefly: the label of your chosen item.
a
(a: 34.2 µM, b: 0.476 µM)
